For each entry below, report its Inhibition value.
# Test system: Plasmodium falciparum
# Protocol notes: GSK_TCMDC: Inhibition of Plasmodium falciparum 3D7 in whole red blood cells, using parasite LDH activity as an index of growth. Test compounds present at 2uM
# Format: functional

Readout Inhibition for CC(Cc1ccc(C(=O)Nc2ccc(CC(C)NCCc3cccc(Cl)c3)cc2)cc1)NCCc1ccc(C(F)(F)F)cc1 (stereo not drawn) , test system Plasmodium falciparum, was 100%

Readout Inhibition for CC(=O)Nc1ccc(CN2CCC(NC(=O)c3ccc(-c4cccc(F)c4)s3)CC2)cc1.O=C(O)C(F)(F)F , test system Plasmodium falciparum, was 96%

Readout Inhibition for CCCc1cc(NCc2ccncc2)nc(Nc2ccc(F)cc2)n1 , test system Plasmodium falciparum, was 90%

Readout Inhibition for COc1ccc(CNc2nc(Nc3cccc(C#N)c3)nc(Nc3cccc(C#N)c3)n2)cc1Cl , test system Plasmodium falciparum, was 100%

Readout Inhibition for CN1CCc2ccc(NC(=O)Nc3cccc([N+](=O)[O-])c3)cc2C1 , test system Plasmodium falciparum, was 87%

Readout Inhibition for N=C(NCc1ccc(O)cc1)Nc1nc(-c2ccc(OCCCn3ccnc3)cc2)cs1 , test system Plasmodium falciparum, was 100%

Readout Inhibition for CCc1cn(C)c2c(N3CCCC3=O)cc(C(=O)N[C@@H](Cc3ccccc3)[C@H](O)CNC3CCCCC3)cc12 , test system Plasmodium falciparum, was 97%

Readout Inhibition for N#Cc1ccc(-c2nc3c(N4CCCC4)cccc3n2CCNCc2ccccc2)cc1.O=C(O)C(F)(F)F , test system Plasmodium falciparum, was 100%

Readout Inhibition for CCOC(=O)CCc1cc(F)c(F)c(OC[C@H](O)CNC(C)(C)C(O)c2ccc3ccccc3c2)c1.Cl (stereo partly drawn) , test system Plasmodium falciparum, was 99%

Readout Inhibition for CC(C)N(Cc1ccccc1)C(=O)CN1C(=O)COc2ccc(S(=O)(=O)N3CCCCCC3)cc21 , test system Plasmodium falciparum, was 99%

Readout Inhibition for COc1ccc(NC(=O)c2ccc(-c3nc(-c4ccc(Cl)cc4)cs3)cc2)cc1N1CCN(C)CC1 , test system Plasmodium falciparum, was 91%

Readout Inhibition for CCOc1ccc(OCC)c(N2CCN(CCCCNC(=O)c3ccc(NC(=O)c4ccc(Cl)cc4)cc3)CC2)c1 , test system Plasmodium falciparum, was 97%

Readout Inhibition for FC(F)(F)c1ccc2[nH]c(-c3ccc(-c4ccc(CNCc5cnn(-c6ccccc6)n5)cc4)cc3)nc2c1.O=C(O)C(F)(F)F , test system Plasmodium falciparum, was 100%

Readout Inhibition for CC(C)(C)c1ccc(-c2nnc(N)nc2N)cc1 , test system Plasmodium falciparum, was 92%

Readout Inhibition for Nc1nc(N)c2c(ccc3c2ccn3Cc2ccccc2)n1 , test system Plasmodium falciparum, was 96%

Readout Inhibition for CC(C)c1ccc(NC(=O)c2cccc(CN3CCCN(Cc4cccc(O)c4)CC3)c2)cc1.O=C(O)C(F)(F)F , test system Plasmodium falciparum, was 97%

Readout Inhibition for O=C(Nc1ccc(C(=O)Oc2ccc3ccccc3c2)cc1)N[C@@H](Cc1ccc(O)cc1)C(=O)NC1CCN(Cc2ccc(O)cc2)C1.O=C(O)C(F)(F)F (stereo partly drawn) , test system Plasmodium falciparum, was 86%

Readout Inhibition for CN1CCN(c2ccnc3ccc(NC(=O)Nc4ccc(Cl)cc4)cc23)CC1 , test system Plasmodium falciparum, was 100%

---

For each entry below, report its Inhibition value.
# Test system: HepG2
# Protocol notes: GSK_TCMDC: Percent inhibition of human HepG2 cell line. Test compounds present at 10uM.
# Assay type: functional
Write the value in % as a bare number.

Looking up CCOc1ccc(-c2nonc2NC(=O)c2ccccc2OC)cc1OCC , I see its Inhibition listed as 24

Looking up COc1cc(NC(=O)/C=C/c2cc(F)cc(F)c2F)cc(OCCN2CCC(O)(c3ccccc3)CC2)c1.O=C(O)C(=O)O , I see its Inhibition listed as 54

Looking up Cc1cccc(CCCNC(=O)CN(c2cccc(C(F)(F)F)c2)S(=O)(=O)c2ccc(C(F)(F)F)cc2)c1 , I see its Inhibition listed as 9

Looking up NC1CCN(c2nc(NCCCc3ccc(O)cc3)nc(NCc3ccccc3-c3ccccc3)n2)CC1.O=C(O)C(F)(F)F , I see its Inhibition listed as 11

Looking up CCCCn1c(Sc2ccc(C#N)c([N+](=O)[O-])c2)nnc1-c1cccc(Cl)c1 , I see its Inhibition listed as 30

Looking up COc1cc2nc(N3CCC(c4ccccc4)CC3)nc(NCc3ccc(=O)[nH]c3)c2cc1OC , I see its Inhibition listed as 12

Looking up Cc1nc(Nc2cc(Cl)ccc2O)nc(Nc2cc(Cl)ccc2O)c1[N+](=O)[O-] , I see its Inhibition listed as 0

Looking up CC(C)Cn1cc(C2CCN(CCN3CCC(CNC(=O)c4ccc(-c5ccc(C(F)(F)F)cc5)cc4)CC3)CC2)c2ccccc21 , I see its Inhibition listed as 100

Looking up O=C(NCCCN1CCCC1=O)NCc1ccccc1 , I see its Inhibition listed as 8

---

For each entry below, report its Inhibition value.
# System: Plasmodium falciparum
# Protocol notes: GSK_TCMDC: Inhibition of Plasmodium falciparum 3D7 in whole red blood cells, using parasite LDH activity as an index of growth. Test compounds present at 2uM
# Format: functional
Write the value in % as a bare number.

Looking up O=C1C[C@@H]([S+]([O-])Cc2nccs2)N1CCOCCCCCCc1ccc(Cl)cc1 (some centres undefined) , I see its Inhibition listed as 91

Looking up O=C(Nc1cccc(Cl)c1Cl)Nc1ccnc2ccccc12 , I see its Inhibition listed as 100

Looking up COc1ccccc1NC(=O)Nc1ccc(-c2ccc(-c3nc4cccc(C)c4[nH]3)s2)cc1 , I see its Inhibition listed as 100

Looking up CCNc1cc(C(=O)N[C@@H](Cc2ccccc2)[C@H](O)CNC2C3CC4CC(C3)CC2C4)cc(N2CCCCS2(=O)=O)c1.Cl (some centres undefined) , I see its Inhibition listed as 97

Looking up N#Cc1ccc2[nH]cc(C(=O)CCCCCN(Cc3ccccc3)Cc3ccccc3)c2c1 , I see its Inhibition listed as 93

Looking up N=C(NCCCCCCCCNC(=N)Nc1ccc(Cl)cc1)Nc1ccc(Cl)cc1 , I see its Inhibition listed as 93

Looking up O=[N+]([O-])c1ccccc1C=NN=c1cc[nH]c2ccccc12 , I see its Inhibition listed as 100

Looking up CN(C)c1ccc(-c2cscc2C(=O)NC2CCCN(Cc3cccnc3)C2)cc1.O=C(O)C(F)(F)F (centres undefined) , I see its Inhibition listed as 89

Looking up O=C(Cn1c(CCc2cccc(F)c2F)cc(=O)c2ccccc21)N(CCN1CCCC1)Cc1ccc(-c2ccc(C(F)(F)F)cc2)cc1.O=C(O)C(O)C(O)C(=O)O , I see its Inhibition listed as 99

---

# Tested on: HepG2
# Protocol notes: GSK_TCMDC: Percent inhibition of human HepG2 cell line. Test compounds present at 10uM.
# Assay type: functional
Threshold 10%: Inhibition strictly smaller gives TRUE, otherwise FALSE.

Hello, is Inhibition of the following compound strictly smaller than 10%? COc1ccc2[nH]c(C)cc(=NN=Cc3cc(OC)c(OC)cc3OC)c2c1
TRUE

Hello, is Inhibition of the following compound strictly smaller than 10%? N#Cc1ccc(CN2CCC(NC(=O)c3ccc(-c4nnc(-c5cccc6ccccc56)o4)cc3)CC2)cc1
FALSE

Hello, is Inhibition of the following compound strictly smaller than 10%? Br.CC1(C)NC(N)=NC(=N)N1OCCc1cccc2ccccc12
FALSE

Hello, is Inhibition of the following compound strictly smaller than 10%? COc1cc2nc(N3CCC(CNCc4ccc(-c5ccc(C(F)(F)F)cc5)cc4)CC3)nc(N)c2cc1OC
FALSE

Hello, is Inhibition of the following compound strictly smaller than 10%? Cc1cc2nc(-c3ccc(/C=C/C(=O)NCCc4ccccc4)cc3)[nH]c2cc1C
TRUE

Hello, is Inhibition of the following compound strictly smaller than 10%? Cc1cccc2nc(-c3ccc(-c4ccc(NC(=O)Nc5cccc(C#N)c5)cc4)s3)[nH]c12
FALSE

Hello, is Inhibition of the following compound strictly smaller than 10%? CC(C)c1ccc(NS(=O)(=O)c2cccc(C(=O)NC3CCN(CC4CCCCC4)CC3)c2)cc1.O=C(O)C(F)(F)F
FALSE

Hello, is Inhibition of the following compound strictly smaller than 10%? COc1ccc(C(=O)N2CCc3cc4nccc(N5CCN6CCC[C@H]6C5)c4cc32)cc1
TRUE

Hello, is Inhibition of the following compound strictly smaller than 10%? O=C(/C=C/c1ccc(Cl)c(Cl)c1)NCCCCCCN1CCCN(C(=O)Nc2cc(Cl)cc(Cl)c2)CC1
FALSE

Hello, is Inhibition of the following compound strictly smaller than 10%? Cc1cc(C(=O)Nc2ccc3c(c2)CCN3C2CCN(Cc3ccc(F)cc3Cl)C2)no1 (stereo not drawn)
TRUE

Hello, is Inhibition of the following compound strictly smaller than 10%? Cc1cc2nc(-c3ccc(/C=C/C(=O)NCCCc4ccccc4)cc3)[nH]c2cc1C
FALSE

Hello, is Inhibition of the following compound strictly smaller than 10%? O=C(Nc1ccc(N2CCNCC2)nc1)c1oc(-c2ccccc2)nc1C(F)(F)F
TRUE

Hello, is Inhibition of the following compound strictly smaller than 10%? COc1cc(OC)cc(-c2nn(-c3ccc([N+](=O)[O-])cc3Cl)c(=S)n2Cc2ccco2)c1
FALSE

Hello, is Inhibition of the following compound strictly smaller than 10%? CCNC(=O)N1CCN(c2nc(-c3ccccc3)nc(COC)c2Cc2ccc(C)cc2)CC1
FALSE

Hello, is Inhibition of the following compound strictly smaller than 10%? COc1cccc(-c2cccc(NC(=O)C3CCN(Cc4ccc(O)cc4)CC3)c2)c1
TRUE

Hello, is Inhibition of the following compound strictly smaller than 10%? Cc1nnsc1C(=O)Nc1cccc(-c2ccc(-c3nc4cc(F)ccc4[nH]3)s2)c1
FALSE

Hello, is Inhibition of the following compound strictly smaller than 10%? O=C(NC1CC1c1ccccc1)N(CCCn1ccnc1)Cc1csc(-c2ccc(CNCc3ccccc3)cc2)n1.O=C(O)C(F)(F)F (stereo not drawn)
TRUE

Hello, is Inhibition of the following compound strictly smaller than 10%? CC(C)[C@H](NC(=O)c1ccc(O)c(-c2cccc(C(F)(F)F)c2)c1)C(=O)NC1CCCc2ccccc21 (stereo partly drawn)
TRUE

Hello, is Inhibition of the following compound strictly smaller than 10%? Cc1cc2ncn(-c3ccnc(N4CCN(CCCN5CCCC5)CC4)n3)c2cc1C.O=C(O)C(F)(F)F
FALSE

Hello, is Inhibition of the following compound strictly smaller than 10%? O=C(Nc1ccc(CCNCc2ccccc2)cc1)Nc1ccc(OC(F)(F)F)cc1.O=C(O)C(F)(F)F
TRUE

Hello, is Inhibition of the following compound strictly smaller than 10%? Cc1ccc(NC(=O)c2cn(-c3ccccc3)nc2-c2ccc(F)cc2)cc1[N+](=O)[O-]
TRUE

Hello, is Inhibition of the following compound strictly smaller than 10%? C=CCc1cc(Cc2cnc(N)nc2N)c2ccc(C)nc2c1OC
FALSE

Hello, is Inhibition of the following compound strictly smaller than 10%? N=C(N)NN=CC(=O)Nc1ccc(Br)cc1.O=S(=O)(O)O
TRUE

Hello, is Inhibition of the following compound strictly smaller than 10%? CN1CCCN(Cc2ccc(-c3ccc(NC(=O)c4cccc(Cl)c4)cc3)cc2)CC1.O=C(O)C(F)(F)F
FALSE

Hello, is Inhibition of the following compound strictly smaller than 10%? COc1cccc(NC(=O)Nc2c(-c3cccc(C(F)(F)F)c3)c(C(F)(F)F)nn2C)c1
TRUE

Hello, is Inhibition of the following compound strictly smaller than 10%? Fc1ccc(-c2cncc(-c3ccc(F)cc3)n2)cc1
TRUE

Hello, is Inhibition of the following compound strictly smaller than 10%? CN(C)c1ccc(CN2CCC(CNC(=O)c3cc(-c4ccccc4Cl)cs3)C2)cc1.O=C(O)C(F)(F)F (stereo not drawn)
FALSE

Hello, is Inhibition of the following compound strictly smaller than 10%? Cc1cc(N(C)CCCN(C)C)nc(Nc2ccc(Br)cc2)n1
TRUE

Hello, is Inhibition of the following compound strictly smaller than 10%? CCC(=O)N[C@@H]1CN[C@@H](C#Cc2cc3c(Nc4ccc(OCc5cccc(F)c5)c(Cl)c4)ncnc3s2)C1
FALSE

Hello, is Inhibition of the following compound strictly smaller than 10%? O=C(NCCNc1ccnc2cc(Cl)ccc12)c1ccccc1F
FALSE

Hello, is Inhibition of the following compound strictly smaller than 10%? COc1ccc2ccccc2c1CNCC1CCN(CC2CCCCC2)CC1.O=C(O)C(F)(F)F
FALSE

Hello, is Inhibition of the following compound strictly smaller than 10%? COc1cc2c(cc1S(=O)(=O)c1ccc(COc3ccc(C(F)(F)F)cc3)cc1)CNCC2.Cl
FALSE

Hello, is Inhibition of the following compound strictly smaller than 10%? CC(C)(C)CNc1noc(-c2sccc2Br)n1
TRUE

Hello, is Inhibition of the following compound strictly smaller than 10%? O=C(Nc1cccc(-c2cccc(-c3nc4cc(F)ccc4[nH]3)c2)c1)c1ccncc1
FALSE

Hello, is Inhibition of the following compound strictly smaller than 10%? CCC(C(=O)Nc1ccccc1)n1nc(-c2ccc(C)c(S(=O)(=O)N3CCCCC3)c2)ccc1=O (stereo not drawn)
TRUE

Hello, is Inhibition of the following compound strictly smaller than 10%? O=C(O)C1Cc2c([nH]c3ccccc23)C(c2ccc(Cl)cc2Cl)N1 (stereo not drawn)
TRUE

Hello, is Inhibition of the following compound strictly smaller than 10%? Cc1cc(C(=O)CSc2nc3ccccc3n2-c2ccccc2)c(C)n1C1CCS(=O)(=O)C1 (stereo not drawn)
TRUE

These data points were gathered from ChEMBL document CHEMBL1157539.
